Recorded measurements of Selectivity, one per entry
- target under test: Receptor-type tyrosine-protein phosphatase alpha (Homo sapiens)
- procedure text: Selectivity against protein tyrosine phosphatase alpha

Input: I'd like to know its Selectivity. The compound in question is C=CC[C@@]1(O)CC/C(C)=C\CC[C@]2(C)[C@@H]([C@H](C)CCCC(C)C)CC[C@H]2c2ccc(cc2C(=O)O)C1
Output: > 30 µM

Input: I'd like to know its Selectivity. The compound in question is CC(=O)O[C@H]1CC/C(C)=C\CC[C@]2(C)[C@@H]([C@H](C)CCCC(C)C)CC[C@H]2c2ccc(cc2C(=O)O)C1
Output: > 30 µM

Input: I'd like to know its Selectivity. The compound in question is C/C1=C/CC[C@]2(C)[C@@H]([C@H](C)CCCC(C)C)CC[C@H]2c2ccc(cc2C=O)C[C@@H](O)CC1
Output: > 30 µM
